The measured values listed here are drawn from PubChem BioAssay (NCI).

- Test system: MALME-3M melanoma
- Assay info: NCI-60 one-dose screen, 48 h (100 = growth as untreated, 0 = no growth, -100 = all killed)
- Protocol conditions: 10 µM unless noted
- Method: Cells are grown in 96 well plates and exposed to the test compound for 48 hours. Compounds are tested at a single concentration, which is 10^-5 M for most compounds. The reported endpoint is percent growth (GI% or GIPRCNT), where numbers from 0 - 100% represent growth inhibition, and numbers from -100% - 0 represent cell death. For example, a value of 40 represents 60% growth inhibition. A value of 0 means no net growth occurred over the course of the experiment. […]
About 83,000 compounds went through this panel and 20% of them were active in at least one assay; those are over-represented in the sample as a whole.
Note to self: use true only for growth readings below 90%; a reading exactly at 90% still gets false.

Worked cases, answers included:
Structure	Assigned class
O=[N+]([O-])c1ccc(Oc2ccccc2Cl)c([N+](=O)[O-])c1	true
O=C(c1ccc(O)c(Br)c1)c1ccc(O)c(Br)c1	false
CC1(O)CCCCCC1	false
NNc1cccc([N+](=O)[O-])c1	false
CC(C)N=C(N)/N=C(\N)Nc1ccc2ccc3ccccc3c2c1	true

Now, please, on to the next compound.
Lookup: Is the reported growth for CCCC[n+]1c(/C=C\c2c(OC)cc(OC)cc2OC)ccc2ccccc21 strictly below 90%?
Found: true

###

Catalogue of growth values
- Tested on: U251 CNS
- Assay info: NCI-60 one-dose screen, 48 h (100 = growth as untreated, 0 = no growth, -100 = all killed)
- Protocol conditions: 10 µM unless noted
About 83,000 compounds went through this panel and 20% of them were active in at least one assay; those are over-represented in the sample as a whole.
The answer is to be given in %; state only the numeric part.

Structure	growth (%)
Cn1ccc(=Nc2ccc(NC(=O)c3ccc(N=c4ccn(C)c5ccc([N+](=O)[O-])cc45)cc3)cc2)cc1	-17.5

Lookup: Data request, read-out growth, for O=C1C=CC(=O)c2c(O)c(CO)c(CO)c(O)c21
Found: 105

Lookup: What does the record list as growth for Clc1ccccc1C(c1ccccc1)(c1ccccc1)n1ccnc1 ?
Found: 42

Lookup: For the compound CC[n+]1ccc(Nc2ccc(NC(=O)c3ccc(Nc4cc[n+](CC)c5ccc([N+](=O)[O-])cc45)cc3)cc2)cc1 , what growth is on record?
Found: 62.5

Lookup: Using the record for Cc1oc2c(C)c3oc(=O)cc(C)c3cc2c1CCl , report its growth.
Found: 82.9

Lookup: // lookup growth for COc1cc2c(c(OC)c1OC)-c1ccc(NCc3ccccc3)c(=O)cc1[C@@H](NC(C)=O)CC2
Found: 19

Lookup: Quick check: growth of Cn1c(-c2ccccc2)c(/C=C/C2=[N+](C)c3ccccc3C2(C)C)c2ccccc21 ?
Found: 8.73

Lookup: Look at this compound and give its reported growth. [Cl-].[Rh+3].c1ccc(-c2ccnc3c2ccc2c(-c4ccccc4)ccnc23)cc1.c1ccc(-c2ccnc3c2ccc2c(-c4ccccc4)ccnc23)cc1.c1ccc(-c2ccnc3c2ccc2c(-c4ccccc4)ccnc23)cc1
Found: 30.8

###

- Tested on: OVCAR-5 ovarian
- Assay info: NCI-60 one-dose screen, 48 h (100 = growth as untreated, 0 = no growth, -100 = all killed)
- Protocol conditions: 10 µM unless noted
This is part of a sample that, as a whole, favours compounds with a hit. Of some 83,000 tested, about 20% had one in any assay.
Mark Satisfied for reported growth of 50% or greater; mark Not satisfied for anything smaller.

Answered examples (8):
Molecule	Assigned class
O=[N+]([O-])c1cc(-c2ccccc2)c(O)c([N+](=O)[O-])c1	Satisfied
CCCCCCCCCCCCCCCC[N+]1(C)CCCC1c1cccnc1 (stereo unspecified)	Not satisfied
COC(=O)C(=[N+]=[N-])C(=O)c1ccc([N+](=O)[O-])o1	Satisfied
CCOC(=O)c1c(C)[nH]c2ccc(O)cc12	Satisfied
CN1CCC(CN2c3ccccc3Sc3ccccc32)C1 (stereo unspecified)	Satisfied
CN(C)c1ccc(/C=C/c2cc[n+](C)c(/C=C/c3ccc(N(C)C)cc3)c2)cc1	Not satisfied
CN(C)c1ccc(C(C#N)(c2ccccc2)c2ccc(N(C)C)cc2)cc1	Satisfied
CCCCCCCCCCCC[n+]1ccccc1 (tested in a mixture with another compound)	Not satisfied

Lookup: Hi team, for O=C1c2ccccc2Cc2cccc(Cl)c21 , is the recorded growth at or above 50%?
Found: Satisfied

Lookup: Item O=C(c1ccccc1)c1cc2ccccc2oc1=O with growth of 50% or above?
Found: Satisfied

Lookup: Given the entry N=C1C=C(N)C(=O)c2ccccc21 , answer whether its growth meets or surpasses 50%.
Found: Not satisfied

###

- System: U251 CNS
- Assay info: NCI-60 one-dose screen, 48 h
- Protocol conditions: 10 µM unless noted
The panel holds about 83,000 compounds, 20% with a hit somewhere; the sample as a whole holds those more often. Activity calls are given as the source filed them. How the source made its calls: active means growth percent below 10; inactive means the rest.
Select the correct class. Options are YES (active), NO (inactive) and nothing else.

Compound	Assigned class
Cc1ccc2c(c1)sc(-c1ccc(N(C)C)cc1)[n+]2C	YES
O=C(c1ccccc1)c1cc2ccccc2oc1=O	NO
CN(C)c1ccc(/C=C/c2cc[n+](C)c(/C=C/c3ccc(N(C)C)cc3)c2)cc1	NO
C1=C(c2ccccc2)c2ccccc2C1	NO
CCCCC(C=O)(C=C=C(C)C)CC (stereo not given)	NO

Lookup: Fill in: this test's call for NC1=C(Br)C(=O)c2ncccc2C1=O is ___
Found: YES

Lookup: GET /call?item= NC(=S)Nc1ccc2c(c1)Cc1ccccc1-2 returns the recorded outcome of this test.
Found: NO

Lookup: Test call, this compound: CCC(C)C(N)C(=O)NC(CC(N)=O)C(=O)NC(CC(C)C)C(=O)NC(CCCCN)C(=O)NC(C)C(=O)NC(CC(C)C)C(=O)NC(C)C(=O)NC(C)C(=O)NC(CC(C)C)C(=O)NC(C)C(=O)NC(CCCCN)C(=O)NC(CCCCN)C(=O)NC(C(=O)NC(CC(C)C)C(N)=O)C(C)CC (stereo not given)
Found: NO

Lookup: Which outcome was assigned to O=C1C=Cc2ccccc2/C1=C/c1nc(-c2ccccc2)oc1O in this test?
Found: NO

Lookup: Call for entry O=C(Nc1ccc(Cl)c(Cl)c1)OCc1ccco1 :
Found: NO

###

- Test system: OVCAR-5 ovarian
- Assay info: NCI-60 one-dose screen, 48 h (100 = growth as untreated, 0 = no growth, -100 = all killed)
- Protocol conditions: 10 µM unless noted
Compounds without any hit were thinned out: in the full panel of roughly 83,000, 20% have a hit.
Listed here: items and their measured growth.
Report only the number, with the unit % understood.

Compound	Unit label	Observed value
CCCOS(=O)(=O)c1ccccc1	%	93
Oc1c(Cl)cc(Cl)cc1C(c1cc(Cl)cc(Cl)c1O)C(Cl)(Cl)Cl	%	1.83
Cc1cccc2c(N)c3ccccc3nc12	%	7.56
CCOC(=O)C1(C)CCCC1N (stereo not drawn)	%	106
CC(=O)C1Cc2ccccc2C1=O (stereo not drawn)	%	101

Lookup: Can you look up the measured growth of S=C(S)OCN1CCOCC1 for me?
Found: 97.6

Lookup: Which growth is reported for this compound? O=C(Cc1nc2cc(Cl)c(Cl)cc2nc1CC(=O)c1cccnc1)c1cccnc1
Found: 103

Lookup: Which measured growth value corresponds to O=C1C=CC(=O)c2c(O)c(CO)c(CO)c(O)c21 ?
Found: 84.8

###

- System: SK-MEL-28 melanoma
- Assay info: NCI-60 one-dose screen, 48 h (100 = growth as untreated, 0 = no growth, -100 = all killed)
- Protocol conditions: 10 µM unless noted
Compounds without any hit were thinned out: in the full panel of roughly 83,000, 20% have a hit.
Define the label as MET when growth is strictly less than 80% and as NOT MET in all remaining cases.

Examples from the recorded data:
Molecule	Assigned class
CCNc1nnnn1CC	NOT MET
CC1(C)OC2C(COC(c3ccccc3)(c3ccccc3)c3ccccc3)OC(c3c[nH]c4c(N)ncnc34)C2O1 (configuration not stated)	MET

Next item in the queue.
Lookup: Take the molecule CC(C)(C)c1ccc(O)c(-c2ccccc2)c1 and say whether its growth is less than 80%.
Found: NOT MET

###

- Tested on: SN12C renal
- Assay info: NCI-60 one-dose screen, 48 h (100 = growth as untreated, 0 = no growth, -100 = all killed)
- Protocol conditions: 10 µM unless noted
This is part of a sample that, as a whole, favours compounds with a hit. Of some 83,000 tested, about 20% had one in any assay.
Listed here are molecules together with their documented growth.
Unit % implied. Number only.

Molecule	Unit label	Observed value
Cc1ccc(N2C(=O)C=CC2=O)cc1	%	93.7
C/C=C/c1cc2c(c(=O)o1)C(=O)[C@@H](O)[C@H](C)O2	%	97.6
CC1(C)OCC(COC(c2ccccc2)(c2ccccc2)c2ccccc2)O1 (stereo not drawn)	%	102
c1ccc(-c2cc3cc4ccccc4cn3c2)cc1	%	87.6
CC1(O)CCCCCC1	%	99.9

Lookup: Fill blank: measured growth of the molecule C/C(=N/NC(N)=S)c1ccc(C)cc1 is ____.
Found: 87.4

Lookup: What value of growth has been reported for the following molecule? Nc1nc2ncc(CNc3ccc(C(=O)NC(CCC(=O)NC(CCC(=O)NC(CCC(=O)NC(CCC(=O)NC(CCC(=O)O)C(=O)O)C(=O)O)C(=O)O)C(=O)O)C(=O)O)cc3)nc2c(=O)[nH]1 (stereo not drawn)
Found: 101

Lookup: I would be grateful if you could share the reported growth for O=C1c2ccccc2C(=O)c2c(O)c(Cl)cc(O)c21 .
Found: 96.5

Lookup: Param item = O=C1C=C(Cl)C(=O)c2ccccc21 ; retrieve measured growth.
Found: 101
